# Lookup of reported %Inh keyed by entry
system: BIKE; construct: gene BMP2K; conditions: concentration: 1 μM, replicates: in singlicate; n = 1;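 note: KINOMEscan kinase panel screen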
Answer format: value, then unit.

Consider the reported %Inh for these compounds:
Compound	%Inh
COc1cc(Nc2nccc(N3CCC(NC(=O)c4cccc(NC(C)=O)c4)C3)n2)cc(OC)c1OC (stereo not drawn)	86%
Cl.Nc1ncnc2occ(-c3ccc(NC(=O)Nc4cc(C(F)(F)F)ccc4F)cc3)c12	10%
NS(=O)(=O)c1cccc(-c2ccc3ncc(N4CCOCC4)nc3c2)c1	0%

stdin: Endpoint output: %Inh of Cc1cccc(-c2nc(Nc3ccc4ncsc4c3)c3ccccc3n2)n1 . Value?
stdout: 0%

stdin: Same for O=C(Nc1cccc(-c2nn3ncccc3c2-c2ccnc(Nc3cccc(C(F)(F)F)c3)n2)c1)c1c(F)cccc1F
stdout: 19%

stdin: Same for CSc1ccc(-c2cc3ncnc(SCC(=O)O)c3s2)cc1
stdout: 12%
